# Tested on: C2A
# test-method-notes: qHTS profiling for inhibitors of Plasmodium falciparum proliferation (AID 504749); note: nearly all actives have a fitted effect of over 60% in size
# condition-notes: P. falciparum in erythrocytes, SYBR Green DNA, 72 h; series mostly up to 28.7 µM
Inconclusive results are not listed. Activity calls are given as the source filed them. Calls come from the whole dose curve; as a rule, active = well fitted inhibition curve with a large enough effect; inconclusive = small, poorly fitted or top-dose-only effect; inactive = flat fitted curve, though single readings scatter.
Outcomes you can answer with include only these: active, inactive

Study these solved cases before continuing.
INSERT INTO results (compound, system_name, label_value) VALUES
  ('C[C@@H]1O[C@H](O[C@@H]2C=C3CC[C@H]4[C@@H](CC[C@]5(C)[C@@H](c6ccc(=O)oc6)CC[C@]45O)[C@@]3(C)CC2)[C@@H](O)[C@H](O)[C@@H]1O', 'C2A', 'inactive'),
  ('CCC(C)C1O[C@]2(C=CC1C)CC1CC(C/C=C(\C)[C@H](OC3CC(OC)C(O[C@H]4CC(OC)[C@@H](O)C(C)O4)C(C)O3)[C@@H](C)/C=C/C=C3\COC4C(O)C(C)=C[C@H](C(=O)O1)[C@@]34O)O2 (stereo not given in full)', 'C2A', 'active'),
  ('CNC(C)[C@@H](O)c1ccccc1 (stereo not given in full)', 'C2A', 'inactive'),
  ('CNC[C@H](O)c1ccc(O)cc1', 'C2A', 'inactive');

Now consider the entry below.
Prompt: Can you look up the reported call for CC[C@]1(c2cccc(O)c2)CCCCN(C)C1 for me?
Response: inactive

----------
# test-method-notes: Primary qHTS to identify inhibitors of SARS-CoV-2 cell entry (AID 1645846); note: nearly all actives have a fitted effect of over 45% in size
# condition-notes: SARS-CoV-2 pseudovirus cell entry assay, luminescence
Records with an inconclusive call do not appear. The source made the active and inactive calls. Calls follow the shape of the full dose curve.
Hi! Could you answer with just one of these? label 1 (active), label 0 (inactive)

Example entries and their recorded answers appear below.
INSERT INTO measurements (compound, label_value) VALUES
  ('Cc1cc(CC(C)CC(C)(C)C)n(O)c(=O)c1 (stereo not drawn)', 'label 1'),
  ('CC#Cc1cncc(-c2ccc3c(c2)[C@@]2(N=C(C)C(N)=N2)C2(CCC(OC)CC2)C3)c1 (stereo partly drawn)', 'label 0');

Prompt: Returns: the outcome recorded for CC[C@@H](C)Nc1cc(C(=O)NC2CC3CCC(C2)N3c2ccc(C(=O)C3CC3)cn2)c(C)cc1C(N)=O (stereo partly drawn) in this assay.
Response: label 1

Prompt: Which result was noted for this compound in the test: COc1cccc2c1C(=O)c1c(O)c3c(c(O)c1C2=O)C[C@@](O)(/C(CO)=N/NC(=O)CCCCCN1C(=O)C=CC1=O)C[C@@H]3O[C@H]1C[C@H](N)[C@H](O)[C@H](C)O1
Response: label 1

Prompt: Write down the call the test reported for this compound. Item: N#Cc1ccnc(Nc2cc(C3CCN(C4COC4)CC3)cc(N3CCC(F)(F)C3)n2)c1
Response: label 1

Prompt: Hello, I am checking results. What call was entered for O=C(Nc1cnn2ccc(N3CCC[C@@H]3c3cc(F)ccc3F)nc12)N1CC[C@H](O)C1 ?
Response: label 0

Prompt: Please state the recorded outcome for this compound: COC1CCC(N2C(=O)CNc3ncc(-c4ccc(C(C)(C)O)nc4)nc32)CC1 (stereo not drawn)
Response: label 1

Prompt: // param item: C[C@H](CCC(=O)O)[C@H]1CC[C@H]2[C@@H]3[C@H](O)C[C@@H]4C[C@H](O)CC[C@]4(C)[C@H]3C[C@H](O)[C@]12C ; yields the recorded call
Response: label 0
